- Experimental system: pig kidney FBPase L56A (Sus scrofa, UniProt P00636, L57A)
- Construct: His6 (C)
- Sequence (P00636 1-338 L57A): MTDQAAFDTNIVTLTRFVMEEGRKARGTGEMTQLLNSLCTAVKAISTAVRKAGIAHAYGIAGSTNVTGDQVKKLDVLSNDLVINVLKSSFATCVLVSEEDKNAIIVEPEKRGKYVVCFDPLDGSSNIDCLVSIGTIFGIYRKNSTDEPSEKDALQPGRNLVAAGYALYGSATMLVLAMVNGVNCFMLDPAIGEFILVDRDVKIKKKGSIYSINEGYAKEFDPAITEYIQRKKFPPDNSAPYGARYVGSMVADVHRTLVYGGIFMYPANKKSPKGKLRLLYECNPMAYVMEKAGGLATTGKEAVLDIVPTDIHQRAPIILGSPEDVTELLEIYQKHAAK
- Protocol: Malachite Green kinetic assay, L56A mutant
- Run conditions: enzyme L56A; FBP substrate 10 to 50 µM
Each entry below lists one item and its recorded IC50 value.

>>> df
                                   compound  value_reported
0  Nc1ncnc2c1ncn2[C@@H]1O[C@H](COP(=O)(O)O)[C@@H](O)[C@H]1O         7.35 µM

Now turn to the next compound.
# assay system pig kidney FBPase L56A (Sus scrofa, UniProt P00636, L57A): give IC50 of O=P(O)(O)OC[C@H]1O[C@@](CO)(OP(=O)(O)O)[C@@H](O)[C@@H]1O [F2,6-BP, fructose-2,6-bisphosphate]
7.5 µM

###

- Experimental system: pig kidney FBPase Y113A (Sus scrofa, UniProt P00636, Y114A)
- Construct: His6 (C)
- Sequence (P00636 1-338 Y114A): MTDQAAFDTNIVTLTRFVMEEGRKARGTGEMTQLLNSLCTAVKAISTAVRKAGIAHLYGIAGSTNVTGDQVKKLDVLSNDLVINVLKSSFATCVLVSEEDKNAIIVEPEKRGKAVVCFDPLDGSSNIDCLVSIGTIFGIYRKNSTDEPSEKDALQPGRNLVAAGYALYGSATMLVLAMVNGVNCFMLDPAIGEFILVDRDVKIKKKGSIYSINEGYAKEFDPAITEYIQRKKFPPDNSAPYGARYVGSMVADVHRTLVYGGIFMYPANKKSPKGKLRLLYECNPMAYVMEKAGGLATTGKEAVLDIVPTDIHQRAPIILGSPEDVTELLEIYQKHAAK
- Protocol: Malachite Green kinetic assay, Y113A mutant
- Run conditions: enzyme Y113A
Observable: Ki (nM)
Unit nM implied. Number only.

# assay system pig kidney FBPase Y113A (Sus scrofa, UniProt P00636, Y114A): give Ki of O=P(O)(O)OC[C@H]1O[C@@](CO)(OP(=O)(O)O)[C@@H](O)[C@@H]1O [F2,6-BP, fructose-2,6-bisphosphate]
250

###

Each entry below lists one item and its recorded IC50 value.
- Experimental system: pig kidney FBPase Y164A (Sus scrofa, UniProt P00636, Y165A)
- Construct: His6 (C)
- Sequence (P00636 1-338 Y165A): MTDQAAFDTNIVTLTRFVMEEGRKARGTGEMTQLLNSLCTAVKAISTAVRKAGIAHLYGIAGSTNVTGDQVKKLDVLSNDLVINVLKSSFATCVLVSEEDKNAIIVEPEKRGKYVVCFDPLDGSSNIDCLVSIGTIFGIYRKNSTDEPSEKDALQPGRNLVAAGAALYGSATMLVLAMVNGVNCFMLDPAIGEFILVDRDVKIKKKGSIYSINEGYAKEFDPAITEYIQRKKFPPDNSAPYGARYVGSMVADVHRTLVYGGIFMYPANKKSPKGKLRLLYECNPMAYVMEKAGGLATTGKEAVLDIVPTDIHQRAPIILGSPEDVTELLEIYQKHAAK
- Protocol: Malachite Green kinetic assay, Y164A mutant
- Run conditions: enzyme Y164A; FBP substrate 10 to 50 µM
Unit nM implied. Number only.

>>> print(df.to_string())
                                   molecule  observable  uom  value_reported
0  O=P(O)(O)OC[C@H]1O[C@@](CO)(OP(=O)(O)O)[C@@H](O)[C@@H]1O [F2,6-BP, fructose-2,6-bisphosphate]        IC50   nM             950

Now turn to the next molecule.
Indicate its recorded IC50; the molecule in question is Nc1ncnc2c1ncn2[C@@H]1O[C@H](COP(=O)(O)O)[C@@H](O)[C@H]1O
2500

Where do these numbers come from? They come from paper PMC6386767.
